# EXPERIMENTAL SYSTEM: panel of more than 300 wild-type and mutant kinases (313 kinase panel) (Homo sapiens, UniProt P54756)
# ASSAY OVERVIEW: Kinase profiling in a biochemical assay panel (mobility shift assays and ELISA), %-inhibition at 1 μM; selectivity entropy
# MEASUREMENT CONDITIONS: kinase EPHA5; compound at 1 μM
Use 90% as the dividing line for %-inhibition of EPHA5, with the line itself on the yes side and lower values as no.

Check if %-inhibition of EPHA5 >= 90% (inclusive). Item: `CO[C@H]1C[C@@H]2CC[C@@H](C)[C@@](O)(O2)C(=O)C(=O)N2CCCC[C@H]2C(=O)O[C@H]([C@H](C)C[C@@H]2CC[C@@H](OC(=O)C(C)(CO)CO)[C@H](OC)C2)CC(=O)[C@H](C)/C=C(\C)[C@@H](O)[C@@H](OC)C(=O)[C@H](C)C[C@H](C)/C=C/C=C/C=C/1C`
no

Would you say `CNC(=O)c1cc(Oc2ccc(NC(=O)Nc3ccc(Cl)c(C(F)(F)F)c3)c(F)c2)ccn1` shows %-inhibition of EPHA5 at minimum 90%?
yes

Threshold query (%-inhibition of EPHA5 >= 90%) on `CCCS(=O)(=O)Nc1ccc(F)c(C(=O)c2c[nH]c3ncc(-c4ccc(Cl)cc4)cc23)c1F`
no

# bool: %-inhibition of EPHA5 of `CC(=O)Nc1cccc(-n2c(=O)n(C3CC3)c(=O)c3c(Nc4ccc(I)cc4F)n(C)c(=O)c(C)c32)c1` >= 90%
no

Does the molecule COc1cc2nccc(Oc3ccc(NC(=O)C4(C(=O)Nc5ccc(F)cc5)CC4)cc3)c2cc1OC [cabozantinib] have recorded %-inhibition of EPHA5 that is 90% or more?
yes

###

# EXPERIMENTAL SYSTEM: panel of more than 300 wild-type and mutant kinases (313 kinase panel) (Homo sapiens, UniProt P24723)
# Sequence (P24723 whole entry, change not shown): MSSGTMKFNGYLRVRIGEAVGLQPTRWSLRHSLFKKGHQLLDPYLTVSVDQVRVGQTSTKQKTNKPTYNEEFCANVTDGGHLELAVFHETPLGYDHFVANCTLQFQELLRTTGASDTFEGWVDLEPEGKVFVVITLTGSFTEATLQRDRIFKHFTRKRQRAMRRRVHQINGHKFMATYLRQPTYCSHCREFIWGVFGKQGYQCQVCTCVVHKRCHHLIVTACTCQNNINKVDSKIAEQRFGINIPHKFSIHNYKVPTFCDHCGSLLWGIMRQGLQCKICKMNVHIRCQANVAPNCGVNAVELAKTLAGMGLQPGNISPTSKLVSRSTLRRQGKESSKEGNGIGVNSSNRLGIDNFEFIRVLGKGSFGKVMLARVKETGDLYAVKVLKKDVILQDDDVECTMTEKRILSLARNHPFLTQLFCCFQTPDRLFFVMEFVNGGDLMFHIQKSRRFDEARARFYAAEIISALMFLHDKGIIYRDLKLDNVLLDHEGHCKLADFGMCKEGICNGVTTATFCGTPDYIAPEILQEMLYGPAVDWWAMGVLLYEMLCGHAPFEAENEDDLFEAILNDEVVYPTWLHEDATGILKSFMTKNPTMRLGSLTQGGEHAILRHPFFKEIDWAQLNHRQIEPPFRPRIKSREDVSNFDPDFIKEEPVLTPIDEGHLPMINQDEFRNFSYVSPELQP
# ASSAY OVERVIEW: Kinase profiling in a biochemical assay panel (mobility shift assays and ELISA), %-inhibition at 1 μM; selectivity entropy
# MEASUREMENT CONDITIONS: kinase PKCη; 1 μM
TEST READOUT: %-inhibition of PKCη (%)
Numbers only here, please. The scale is %.

Value lookup for %-inhibition of PKCη; key = `Cc1nc(Nc2ncc(C(=O)Nc3c(C)cccc3Cl)s2)cc(N2CCN(CCO)CC2)n1`
3

Which value of %-inhibition of PKCη has been reported for `Cc1cn(-c2cc(NC(=O)c3ccc(C)c(Nc4nccc(-c5cccnc5)n4)c3)cc(C(F)(F)F)c2)cn1` in the records?
5.43

Give the measured %-inhibition of PKCη of `CC(C)(C)c1nc(-c2cccc(NS(=O)(=O)c3c(F)cccc3F)c2F)c(-c2ccnc(N)n2)s1` .
9

What value of %-inhibition of PKCη has been recorded for this entry: `CNC(=O)c1cc(Oc2ccc(NC(=O)Nc3ccc(Cl)c(C(F)(F)F)c3)c(F)c2)ccn1`
-9

Give its %-inhibition of PKCη value. Item: `COc1cc(Nc2c(C#N)cnc3cc(OCCCN4CCN(C)CC4)c(OC)cc23)c(Cl)cc1Cl`
1.14

Fill blank: measured %-inhibition of PKCη of the compound COc1cc2nccc(Oc3ccc(NC(=O)C4(C(=O)Nc5ccc(F)cc5)CC4)cc3)c2cc1OC [cabozantinib] is ____.
8.55

Give the measured %-inhibition of PKCη of `CO[C@H]1C[C@@H]2CC[C@@H](C)[C@@](O)(O2)C(=O)C(=O)N2CCCC[C@H]2C(=O)O[C@H]([C@H](C)C[C@@H]2CC[C@@H](OCCO)[C@H](OC)C2)CC(=O)[C@H](C)/C=C(\C)[C@@H](O)[C@@H](OC)C(=O)[C@H](C)C[C@H](C)/C=C/C=C/C=C/1C` .
9

What value of %-inhibition of PKCη has been reported for the following compound? `O=S(=O)(c1cccc2cnccc12)N1CCCNCC1`
35

Dear colleague, I am looking for the recorded %-inhibition of PKCη of the following compound: `Cc1ccc(Nc2nccc(N(C)c3ccc4c(C)n(C)nc4c3)n2)cc1S(N)(=O)=O`
-1.67

So what does the record say about %-inhibition of PKCη for `C[C@@H](Oc1cc(-c2cnn(C3CCNCC3)c2)cnc1N)c1c(Cl)ccc(F)c1Cl` ?
-8

Value lookup for %-inhibition of PKCη; key = `CS(=O)(=O)CCNCc1ccc(-c2ccc3ncnc(Nc4ccc(OCc5cccc(F)c5)c(Cl)c4)c3c2)o1`
2.46

Given the entry `Cc1ccc(C(=O)Nc2ccc(CN3CCN(C)CC3)c(C(F)(F)F)c2)cc1C#Cc1cnc2cccnn12` , report its measured %-inhibition of PKCη.
5.45

Look up %-inhibition of PKCη: `CCCS(=O)(=O)Nc1ccc(F)c(C(=O)c2c[nH]c3ncc(-c4ccc(Cl)cc4)cc23)c1F`
-22

Name the recorded %-inhibition of PKCη for `CO[C@H]1C[C@@H]2CC[C@@H](C)[C@@](O)(O2)C(=O)C(=O)N2CCCC[C@H]2C(=O)O[C@H]([C@H](C)C[C@@H]2CC[C@@H](OC(=O)C(C)(CO)CO)[C@H](OC)C2)CC(=O)[C@H](C)/C=C(\C)[C@@H](O)[C@@H](OC)C(=O)[C@H](C)C[C@H](C)/C=C/C=C/C=C/1C` .
8

%-inhibition of PKCη for `N#CC[C@H](C1CCCC1)n1cc(-c2ncnc3[nH]ccc23)cn1` ?
-1.36

So what does the record say about %-inhibition of PKCη for `CC(=O)Nc1cccc(-n2c(=O)n(C3CC3)c(=O)c3c(Nc4ccc(I)cc4F)n(C)c(=O)c(C)c32)c1` ?
-8

Query: %-inhibition of PKCη; subject: `COc1cc2c(Nc3ccc(Br)cc3F)ncnc2cc1OCC1CCN(C)CC1`
-9
